Hello, the source for this data is PubChem BioAssay (NCI), in case you need it.

# collection of GI50 values tested on UACC-62 melanoma

• O=C(O)CN1CCN(CC(=O)O)CCN(CC(=O)O)CC1 = 8700 µM
• NC1CCCCC1N.O=NN1CCCCCC1(P(=O)([O-])[O-])P(=O)([O-])[O-].[Na+].[Pt+2] = > 100 µM
• COc1ccc2c(c1)SC1=NNC(Cl)C(=O)N12 (centres undefined) = 15.6 µM
• COc1ccc(C(O)c2cc3c(N)c(C(=O)Nc4ccc(Br)cc4)sc3nc2C)cc1 (centres undefined) = 2.49 µM
• Cc1ccc2cc3c(N)c4c(C)ccc(C)c4nc3nc2c1 = 7.72 µM
• CC(C)OC(=O)Nc1ccc(-c2nc(-c3cccc(OCCN4CCOCC4)c3)c(-c3ccnc(Br)c3)[nH]2)cc1 = 2.31 µM
• CC(=O)Nc1cccc(C#Cc2cncnc2Nc2ccc(OCc3cccc(F)c3)c(Cl)c2)n1 = 24.4 µM
• Cc1cc2nc3c4cc(C=O)ccc4n(CCN(C)C)c3nc2cc1C = 1.75 µM

Please turn your attention to the following entry.
Find the measured GI50: item "Clc1ccc(-c2ccc(CNCC3CCNCC3)o2)c(-c2ccccc2)c1" , target or system UACC-62 melanoma. 1.75 µM
